All values here come from ChEMBL document CHEMBL1128770.

Tested on: Rattus norvegicus
Test: Hepatoprotective activity against thioacetamide(200 mg/kg, sc) induced toxicity in rat at 6 mg/kg dose(po x 7 days), expressed as %protection afforded in various levels of glutamate oxaloacetate transaminase (GOT)
Format: functional
// values below are reported GOT Level
The reply should contain only the number, in U l-1.

Recorded GOT Level, per entry:
SMILES_REPR: CN(C)c1ccc(Cc2c(N)noc2N)cc1
ASSAY_RESULT: 114

SMILES_REPR: Nc1noc(N)c1Cc1ccc(Cl)cc1
ASSAY_RESULT: 106

SMILES_REPR: Cc1ccc(-c2cc(Cc3nnc(N)s3)n(-c3ccccc3)n2)cc1
ASSAY_RESULT: 65.2

SMILES_REPR: CC(=O)Nc1[nH]nc(N)c1Cc1ccc(Cl)cc1
ASSAY_RESULT: 96.7

SMILES_REPR: COc1ccc(Cc2c(N)noc2N)cc1
ASSAY_RESULT: 99.9

Then there is this compound:
Query string: Form field: reported GOT Level of `Nc1n[nH]c(N)c1Cc1ccc2c(c1)OCO2`
Result string: 75.6
